Give measured inhibition at 10 µM for each item. Keep answers brief.
- target-entity: NA-uptake (Rattus norvegicus)
- Sequence (Q63380 1-617): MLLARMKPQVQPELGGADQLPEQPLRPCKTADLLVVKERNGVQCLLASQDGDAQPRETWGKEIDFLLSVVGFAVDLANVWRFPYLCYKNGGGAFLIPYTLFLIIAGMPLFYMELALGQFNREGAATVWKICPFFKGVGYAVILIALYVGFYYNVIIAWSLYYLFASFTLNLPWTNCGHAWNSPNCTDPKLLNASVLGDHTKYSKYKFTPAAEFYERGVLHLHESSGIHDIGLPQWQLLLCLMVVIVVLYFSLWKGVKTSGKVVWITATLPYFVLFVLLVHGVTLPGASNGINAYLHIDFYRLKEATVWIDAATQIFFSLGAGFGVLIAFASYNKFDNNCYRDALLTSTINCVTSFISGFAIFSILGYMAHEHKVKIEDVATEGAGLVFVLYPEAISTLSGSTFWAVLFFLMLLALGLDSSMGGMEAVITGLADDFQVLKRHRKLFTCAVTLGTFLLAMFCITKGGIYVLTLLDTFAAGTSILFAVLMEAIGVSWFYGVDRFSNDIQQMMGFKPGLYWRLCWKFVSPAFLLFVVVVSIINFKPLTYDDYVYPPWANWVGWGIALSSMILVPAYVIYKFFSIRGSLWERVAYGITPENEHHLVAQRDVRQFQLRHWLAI
- assay-explanation: biochemical
- condition-description: read-out: NA-uptake [10 μM], % inhibition
The answer is to be given in %; state only the numeric part.

Q: Entry Cc1ccc(CC2(N(C)C)CCC(NC(=O)CCC(=O)N3CCN(c4ccccc4C)CC3)CC2)cc1 (stereo not shown) needs its inhibition at 10 µM filled in; supply it.
Result: 86

Q: Entry CN(CCc1c[nH]c2ccccc12)C(=O)CCC(=O)NC1CCC(Cc2ccc(Cl)cc2)(N(C)C)CC1 (stereo not shown) needs its inhibition at 10 µM filled in; supply it.
Result: 100

Q: Entry Cc1cccc(CC2(N(C)C)CCC(NC(=O)CCC(=O)N(C)CCc3c[nH]c4ccccc34)CC2)c1 (stereo not shown) needs its inhibition at 10 µM filled in; supply it.
Result: 97

Q: Entry Cc1ccc(CC2(N(C)C)CCC(NC(=O)CCC(=O)N3CC=CCC3)CC2)cc1 (stereo not shown) needs its inhibition at 10 µM filled in; supply it.
Result: 74

Q: Entry Cc1cccc(CC2(N(C)C)CCC(NC(=O)CCC(=O)N3CCN(c4ccc(Cl)cc4)CC3)CC2)c1 (stereo not shown) needs its inhibition at 10 µM filled in; supply it.
Result: 94

Q: Entry Cc1cccc(CC2(N(C)C)CCC(NC(=O)CCC(=O)N3CCN(C(=O)c4cccc(Cl)c4)CC3)CC2)c1 (stereo not shown) needs its inhibition at 10 µM filled in; supply it.
Result: 106

Q: Entry Cc1ccc(CC2(N(C)C)CCC(NC(=O)CCC(=O)N3CCN(c4cccc(C)c4)CC3)CC2)cc1 (stereo not shown) needs its inhibition at 10 µM filled in; supply it.
Result: 91

Q: Entry Cc1cccc(CC2(N(C)C)CCC(NC(=O)CCC(=O)N3CCC(C(=O)c4ccccc4)CC3)CC2)c1 (stereo not shown) needs its inhibition at 10 µM filled in; supply it.
Result: 96

Q: Entry CN(C)C1(Cc2ccc(Cl)cc2)CCC(NC(=O)CCC(=O)N2CC=C(c3ccc(F)cc3)CC2)CC1 (stereo not shown) needs its inhibition at 10 µM filled in; supply it.
Result: 84

Q: Entry CCOP(=O)(Cc1ccc(NC(=O)CCC(=O)NC2CCC(Cc3cccc(Cl)c3)(N(C)C)CC2)cc1)OCC (stereo not shown) needs its inhibition at 10 µM filled in; supply it.
Result: 100

Q: Entry Cc1ccc(CC2(N(C)C)CCC(NC(=O)CCC(=O)N3CCC(CNC(=O)C(F)(F)F)CC3)CC2)cc1 (stereo not shown) needs its inhibition at 10 µM filled in; supply it.
Result: 77

Q: Entry Cc1cccc(CC2(N(C)C)CCC(NC(=O)CCC(=O)NC(C)c3ccc4ccccc4c3)CC2)c1 (stereo not shown) needs its inhibition at 10 µM filled in; supply it.
Result: 102

Q: Entry CCOC(=O)C(C)NC(=O)CCC(=O)NC1CCC(Cc2ccc(Cl)cc2)(N(C)C)CC1 (stereo not shown) needs its inhibition at 10 µM filled in; supply it.
Result: 91

Q: Entry CC1CCN(C(=O)CCC(=O)NC2CCC(Cc3ccc(Cl)cc3)(N(C)C)CC2)CC1 (stereo not shown) needs its inhibition at 10 µM filled in; supply it.
Result: 71

Q: Entry CN(C)C1(Cc2ccc(Cl)cc2)CCC(NC(=O)CCC(=O)NCc2cc(F)cc(F)c2)CC1 (stereo not shown) needs its inhibition at 10 µM filled in; supply it.
Result: 98

Q: Entry CN(C)C1(Cc2ccc(Cl)cc2)CCC(NC(=O)CCC(=O)N2CCSCC2)CC1 (stereo not shown) needs its inhibition at 10 µM filled in; supply it.
Result: 72
